B1: MGC16075 (parent)
chain: AGSRQALSFEVPPCNYDPEKWIQ

Variants of: B1
method: protein stability index of a GFP-peptide fusion (GPS, HEK-293T) (PSI 1-6); higher = more stable;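 also: lentivirally expressed fusions sorted by FACS into six bins by GFP to DsRed ratio, PSI derived from sequencing read proportions per bin multiplied by bin number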
test.parameters: c terminus: native
Is protein stability index at least 3? Then YES. If not, NO.

variant.string	qualitative.label
S8Y	YES
E19P	NO
W21V	NO
I22E	YES
Q5W	YES
R4S	NO
N15L	NO
I22S	YES
N15R	NO
